Tested on: PC12
Assay explanation: Transfection with β-galactosidase reporter plasmid pCMVSPORT-β-gal, β-gal activity (ONPG)
Type: cell-based
Condition context: PC12 cells; DMS lipid (1:1 DOPE), 1.0 μg plasmid DNA, 1.0 ug peptide; β-gal activity OD 405 nm
Reported Fold Ehancement over Lipid Alone values are given for each entry in this list.
Note: a bare number is incomplete; add the unit.

Answered examples (8):
Substance | Fold Ehancement over Lipid Alone
(K)16YYCARSDGNYGYYYALDYDY [Peptide #8] | 0.37 Fold
(K)16NSRDSSGIQNV [Peptide #2] | 2.09 Fold
(K)16DYYCAAWDDSLNGYSVF [Peptide #5] | 1.6 Fold
(K)16AAWDDSLGI [Peptide #3] | 2.88 Fold
(K)16YYCQQSYSTPWTFGQGTK [Peptide #10] | 1.4 Fold
(K)16YYCQQRSSYPYTFGG [Peptide #6] | 1.13 Fold
(K)16AARSPSYYRYDYGPYYAMDYD [Peptide #9] | 2.68 Fold
(K)16YYCDIRLRDP [Peptide #1] | 1.8 Fold

Q: Give its Fold Ehancement over Lipid Alone value. Item: (K)16VELDSFDY [Peptide #4]
Result: 2.5 Fold

Q: (K)16YYCLQSMEDPYTFGG [Peptide #7] , same question.
Result: 0.91 Fold

====

Reported Fold Ehancement over Lipid Alone values are given for each entry in this list.
System: Human Fibroblast
Assay explanation: Transfection with β-galactosidase reporter plasmid pCMVSPORT-β-gal, β-gal activity (ONPG)
Format: cell-based
Condition context: DMS lipid (1:1 DOPE), 1.0 μg plasmid DNA, 1.0 ug peptide, β-gal activity OD 405 nm
Only the number, expressed in Fold, is required.

Substance | Assay target | Units of measure | Fold Ehancement over Lipid Alone
(K)16NSRDSSGIQNV [Peptide #2] | Human Fibroblast | Fold | 14.5
(K)16YYCDIRLRDP [Peptide #1] | Human Fibroblast | Fold | 3.7

Here is the next item to consider.
Q: Give its Fold Ehancement over Lipid Alone value. Item: (K)16YYCQQRSSYPYTFGG [Peptide #6]
Result: 34

====

System: Human Fibroblast
Assay explanation: Transfection with β-galactosidase reporter plasmid pCMVSPORT-β-gal, β-gal activity (ONPG)
Type: cell-based
Condition context: DMS lipid (1:1 DOPE), 1.0 μg plasmid DNA, 1.0 ug peptide, β-gal activity OD 405 nm
Measurement label: Fold Ehancement over Lipid Alone (Fold)
Only the number, expressed in Fold, is required.

Substance | Units of measure | Fold Ehancement over Lipid Alone
(K)16YYCQQSYSTPWTFGQGTK [Peptide #10] | Fold | 22.7
(K)16DYYCAAWDDSLNGYSVF [Peptide #5] | Fold | 12
(K)16AAWDDSLGI [Peptide #3] | Fold | 12.9
(K)16VELDSFDY [Peptide #4] | Fold | 11.7

Q: Give its Fold Ehancement over Lipid Alone value. Item: (K)16AARSPSYYRYDYGPYYAMDYD [Peptide #9]
Result: 21.9

Q: (K)16YYCARSDGNYGYYYALDYDY [Peptide #8] , same question.
Result: 19.9

Q: (K)16YYCLQSMEDPYTFGG [Peptide #7] , same question.
Result: 29

====

System: HepG2
Assay explanation: Transfection with β-galactosidase reporter plasmid pCMVSPORT-β-gal, β-gal activity (ONPG)
Format: cell-based
Condition context: HepG2 cells; DMS lipid (1:1 DOPE), 1.0 μg plasmid DNA, 1.0 ug peptide; β-gal activity OD 405 nm
Reported Fold Ehancement over Lipid Alone values are given for each entry in this list.
Only the number, expressed in Fold, is required.

Substance | Assay target | Units of measure | Fold Ehancement over Lipid Alone
(K)16NSRDSSGIQNV [Peptide #2] | HepG2 | Fold | 1.3
(K)16AARSPSYYRYDYGPYYAMDYD [Peptide #9] | HepG2 | Fold | 4.25

Here is the next item to consider.
Q: Give its Fold Ehancement over Lipid Alone value. Item: (K)16DYYCAAWDDSLNGYSVF [Peptide #5]
Result: 2
